Biological target: TYK2 (Homo sapiens)
Construct: 5 μl of catalytic domain recombinant Kinase enzyme+Tyr peptide substrate (Invitrogen, CA)
Sequence (P29597 897-1176 limits assumed): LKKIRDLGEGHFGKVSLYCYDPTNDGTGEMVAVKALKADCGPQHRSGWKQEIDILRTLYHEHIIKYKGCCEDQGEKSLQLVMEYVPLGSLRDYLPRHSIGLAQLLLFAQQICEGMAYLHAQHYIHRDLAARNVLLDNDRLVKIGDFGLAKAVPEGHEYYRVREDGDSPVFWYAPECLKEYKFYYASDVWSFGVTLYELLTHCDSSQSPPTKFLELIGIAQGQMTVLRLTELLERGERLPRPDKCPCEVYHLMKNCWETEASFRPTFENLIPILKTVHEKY
Assay: Z'-LYTE kinase assay TYK2
Measured Endpoint: IC50

IN: Given the entry `Cc1cc(Nc2cc(NCc3cccc4ccsc34)c(C(N)=O)cn2)ccc1C(=O)N1CCC1` , report its measured IC50.
OUT: 0.1 to 1 µM

IN: Given the entry `CC(=O)N1CCN(c2ccc(Nc3cc(NCc4cccnc4)c(C(N)=O)cn3)cc2)CC1` , report its measured IC50.
OUT: 0.1 to 1 µM

IN: Given the entry `NC(=O)c1cnc(Nc2ccc(CN3CCOCC3)cc2)cc1NCc1ccccc1` , report its measured IC50.
OUT: > 1 µM

IN: Given the entry `CNC(=O)[C@H]1CCCN(c2ccc(Nc3cc(NCc4ccccc4)c(C(N)=O)cn3)cc2)C1` , report its measured IC50.
OUT: 0.1 to 1 µM

IN: Given the entry `NC(=O)c1cnc(Nc2ccc(C3CCNCC3)cc2)cc1NCc1cccc(F)c1F` , report its measured IC50.
OUT: 0.1 to 1 µM

IN: Given the entry `COc1ccc(Nc2cc(Nc3ccc(N4CCOCC4)cc3)c(C(N)=O)cn2)cc1` , report its measured IC50.
OUT: > 1 µM

IN: Given the entry `NC(=O)c1cnc(Nc2ccc(OCCN3CCCC3)cc2)cc1NCc1ccccc1` , report its measured IC50.
OUT: > 1 µM

IN: Given the entry `NC(=O)c1cnc(Nc2cccc(OCCN3CCCC3)c2)cc1NCc1ccccc1F` , report its measured IC50.
OUT: 0.1 to 1 µM

IN: Given the entry `NC(=O)c1cnc(Nc2ccc(N3CCCCC3=O)cc2)cc1NCc1cc(F)ccc1F` , report its measured IC50.
OUT: 0.1 to 1 µM

IN: Given the entry `NC(=O)c1cnc(Nc2ccc(OC(F)F)cc2)cc1NCc1cccc2[nH]ccc12` , report its measured IC50.
OUT: > 1 µM

IN: Given the entry `CCC(=O)N1CCC(c2ccc(Nc3cc(NCC4(O)CCCC4)c(C(N)=O)cn3)cc2)CC1` , report its measured IC50.
OUT: 0.1 to 1 µM
